Recorded pKd, one value per entry.
Target: T1, huTIGIT (PL44403) (human, UniProt Q495A1 22-141)
T1 construct: Soluble protein; also called Human TIGIT (Octet analyte, mono-Fc tag)
T1 sequence: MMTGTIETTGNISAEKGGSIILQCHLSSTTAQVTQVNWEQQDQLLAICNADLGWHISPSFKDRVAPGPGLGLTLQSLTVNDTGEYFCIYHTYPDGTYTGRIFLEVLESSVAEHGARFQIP
Assay: Octet, antibody on anti-huIgG Fc capture tips, huTIGIT as analyte
pKd: −log10 of the molar value.
ASSAY_ENDPOINT: pKd

>>> test_result("55G7 (antibody, V domains shown, Fully human XenoMouse antibody, tested as hybridoma supernatant or purified mAb) VH: QVQLVESGGGVVQPGRSLRLSCAASGFTFSSYGMHWVRQAPGKGLEWVALIWFDESNIYYADSVKGRFTISRDNSKNTLYLQMNSLRAEDTAVYFCARGYDLLTGYYNFDFWGLGTLVTVSA VL: QAGLTQPPSVSKGLRQTATLTCTGNTNNVGNRGAAWLQQHQGHPPKLLSYRNNNRPSGISERLSASRSGNTASLTITGLQPEDEADYYCSAWDSSLSAWVFGGGTKLTVLG")
"> 10.00"
>>> test_result("43B7 (antibody, V domains shown, Fully human XenoMouse antibody, tested as hybridoma supernatant or purified mAb) VH: QVQLQESGPGLVKPSQTLSLTCTVSGGSISSGGYYWSWIRQHPGKGLEWIGYIYYRGGTYYNPSLRSRVTMSVDTSKNQFSLMLSSVTAADTAVYYCARTIFGVIILDNWGQGTPVTVSS VL: DIQMTQSPSSLSASVGDRVTITCRSSQSISSYLNWYQQKPGRAPKLLIHAASSLQSGVPSRFSGSGSGTDFTLTISSLQPEDFASYCCQQSYTTPPTFGGGTKVEIKR")
"> 10.00"
>>> test_result("66H9 (antibody, V domains shown, Fully human XenoMouse antibody, tested as hybridoma supernatant or purified mAb) VH: QVQLQESGPGLVKPSQTLSLTCTVSGGSISSVYFYWNWIRQHPGKGLEWIGYIYYSGGTYYNPSLRSRVTISVDTSKNQFSLKLNSVTAADTAVYYCARGSIAAGGGYFYYNDMDVWGQGTTVTVSS VL: EIVLTQSPDFQSVTPKEKVAITCRASQSIGSSLHWYQQKPDQSPKPLIKYVSQSFSGVPSRFSGSGSGTDFTLTINSLEAEDAATYYCHQSSSLPLTFGGGTKVEIKR")
"> 10.00"
